- system_name: T1, AFP158/HLA-A*02:01 complex (human)
- T1 construct: flowed as analyte in SPR
- protocol_details: SPR, crude scFv captured, pMHC analyte;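 further: pMHC analyte injected at three concentrations, association phase of one hundred seconds, then running buffer for dissociation, rates fitted from both curves, KD derived from the rates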

| binder | kon, M⁻¹ s⁻¹ |
| --- | --- |
| AS170036 VL1VH1-57H98Q (scFv, also called 09-AS170036 VL1VH1-57H98Q) scFv: QSALTQPRSVSGSPGQSVTISCAGTSSDVGSENYVSWYQQHPGKAPKLMIYQVNKRASGVPDRFSGSKSGNTASLTISGLQAEDEADYYCASYRSSDQNIVFGGGTKLTVLGGGGSGGGGSGGGGSEVQLVESGGGLVQPGGSLRLSCAASGFTFSSYAMSWVRQAPGKGLEWVSTINSGTGHPYYADSVKGRFTISRDNSKNTLYLQMNSLRAEDTAVYYCAKNFFDGSWFLGPPAMDYWGQGTLVTVSSHHHHHH | 190000 |
| AS170036 VL1VH1-57M108D (scFv, also called 29-AS170036 VL1VH1-57M108D) scFv: QSALTQPRSVSGSPGQSVTISCAGTSSDVGSENYVSWYQQHPGKAPKLMIYQVNKRASGVPDRFSGSKSGNTASLTISGLQAEDEADYYCASYRSSDHNIVFGGGTKLTVLGGGGSGGGGSGGGGSEVQLVESGGGLVQPGGSLRLSCAASGFTFSSYAMSWVRQAPGKGLEWVSTINSGTGMPYYADSVKGRFTISRDNSKNTLYLQMNSLRAEDTAVYYCAKNFFDGSWFLDPPAMDYWGQGTLVTVSSHHHHHH | 290000 |
| AS170036 VL1VH1-57M108S (scFv, also called 30-AS170036 VL1VH1-57M108S) scFv: QSALTQPRSVSGSPGQSVTISCAGTSSDVGSENYVSWYQQHPGKAPKLMIYQVNKRASGVPDRFSGSKSGNTASLTISGLQAEDEADYYCASYRSSDHNIVFGGGTKLTVLGGGGSGGGGSGGGGSEVQLVESGGGLVQPGGSLRLSCAASGFTFSSYAMSWVRQAPGKGLEWVSTINSGTGMPYYADSVKGRFTISRDNSKNTLYLQMNSLRAEDTAVYYCAKNFFDGSWFLSPPAMDYWGQGTLVTVSSHHHHHH | 200000 |
| AS170036 VL1VH1-57H108S (scFv, also called 24-AS170036 VL1VH1-57H108S) scFv: QSALTQPRSVSGSPGQSVTISCAGTSSDVGSENYVSWYQQHPGKAPKLMIYQVNKRASGVPDRFSGSKSGNTASLTISGLQAEDEADYYCASYRSSDHNIVFGGGTKLTVLGGGGSGGGGSGGGGSEVQLVESGGGLVQPGGSLRLSCAASGFTFSSYAMSWVRQAPGKGLEWVSTINSGTGHPYYADSVKGRFTISRDNSKNTLYLQMNSLRAEDTAVYYCAKNFFDGSWFLSPPAMDYWGQGTLVTVSSHHHHHH | 140000 |
| AS170036 VL1VH1-57K98F (scFv, also called 10-AS170036 VL1VH1-57K98F) scFv: QSALTQPRSVSGSPGQSVTISCAGTSSDVGSENYVSWYQQHPGKAPKLMIYQVNKRASGVPDRFSGSKSGNTASLTISGLQAEDEADYYCASYRSSDFNIVFGGGTKLTVLGGGGSGGGGSGGGGSEVQLVESGGGLVQPGGSLRLSCAASGFTFSSYAMSWVRQAPGKGLEWVSTINSGTGKPYYADSVKGRFTISRDNSKNTLYLQMNSLRAEDTAVYYCAKNFFDGSWFLGPPAMDYWGQGTLVTVSSHHHHHH | 210000 |
| AS170036 VL1VH1-56N108S (scFv, also called 21-AS170036 VL1VH1-56N108S) scFv: QSALTQPRSVSGSPGQSVTISCAGTSSDVGSENYVSWYQQHPGKAPKLMIYQVNKRASGVPDRFSGSKSGNTASLTISGLQAEDEADYYCASYRSSDHNIVFGGGTKLTVLGGGGSGGGGSGGGGSEVQLVESGGGLVQPGGSLRLSCAASGFTFSSYAMSWVRQAPGKGLEWVSTINSGTNSPYYADSVKGRFTISRDNSKNTLYLQMNSLRAEDTAVYYCAKNFFDGSWFLSPPAMDYWGQGTLVTVSSHHHHHH | 210000 |
| AS170036 VL1VH1-56Y98F (scFv, also called 01-AS170036 VL1VH1-56Y98F) scFv: QSALTQPRSVSGSPGQSVTISCAGTSSDVGSENYVSWYQQHPGKAPKLMIYQVNKRASGVPDRFSGSKSGNTASLTISGLQAEDEADYYCASYRSSDFNIVFGGGTKLTVLGGGGSGGGGSGGGGSEVQLVESGGGLVQPGGSLRLSCAASGFTFSSYAMSWVRQAPGKGLEWVSTINSGTYSPYYADSVKGRFTISRDNSKNTLYLQMNSLRAEDTAVYYCAKNFFDGSWFLGPPAMDYWGQGTLVTVSSHHHHHH | 220000 |

Data provenance is patent US20240279318A1.
